Target: human ether-à-go-go-related gene (hERG) potassium channel (human);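 also: peak tail current of the secondary pulse compared with the same well before compound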
Experiment: primary screen, population patch clamp on CHO cells stably expressing hERG; higher = less effect of the substance
Among all 310,000 compounds or so, about 14,000 (4.5%) showed an effect of 50% or more. Effects have a minus sign here. This excerpt belongs to a sample that is enriched for strong results.
Binary call on hERG current change (%, negative = inhibition) at 10uM: Yes from -20% upward, No beneath that.

Decide: is the reported value of hERG current change (%, negative = inhibition) at 10uM for `CC(C)(CC(=O)O)CC(=O)N1CCN(c2nc3ccc(Cl)cc3s2)CC1` equal to or greater than -20%?
Yes

Same read-out for CCC(c1nnnn1Cc1ccc(F)cc1)N(CCCO)Cc1cc2cc3c(cc2[nH]c1=O)OCO3 (stereo not drawn) ?
Yes

Same read-out for `CCN1CCN(c2ccc(N3CCN(S(=O)(=O)c4cc([N+](=O)[O-])ccc4C)CC3)nn2)CC1` ?
No

Same read-out for CC(NCc1cc(Br)ccc1OCC(N)=O)C12CC3CC(CC(C3)C1)C2.Cl (stereo not drawn) ?
No

Same read-out for CN1CCN(C(CNC(=O)C(=O)Nc2ccc3c(c2)OCO3)c2ccc(F)cc2)CC1 (stereo not drawn) ?
No

###

Target: human ether-à-go-go-related gene (hERG) potassium channel (human, UniProt Q12809);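 also: peak tail current of the secondary pulse compared with the same well before compound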
Sequence (Q12809 whole entry, looked up): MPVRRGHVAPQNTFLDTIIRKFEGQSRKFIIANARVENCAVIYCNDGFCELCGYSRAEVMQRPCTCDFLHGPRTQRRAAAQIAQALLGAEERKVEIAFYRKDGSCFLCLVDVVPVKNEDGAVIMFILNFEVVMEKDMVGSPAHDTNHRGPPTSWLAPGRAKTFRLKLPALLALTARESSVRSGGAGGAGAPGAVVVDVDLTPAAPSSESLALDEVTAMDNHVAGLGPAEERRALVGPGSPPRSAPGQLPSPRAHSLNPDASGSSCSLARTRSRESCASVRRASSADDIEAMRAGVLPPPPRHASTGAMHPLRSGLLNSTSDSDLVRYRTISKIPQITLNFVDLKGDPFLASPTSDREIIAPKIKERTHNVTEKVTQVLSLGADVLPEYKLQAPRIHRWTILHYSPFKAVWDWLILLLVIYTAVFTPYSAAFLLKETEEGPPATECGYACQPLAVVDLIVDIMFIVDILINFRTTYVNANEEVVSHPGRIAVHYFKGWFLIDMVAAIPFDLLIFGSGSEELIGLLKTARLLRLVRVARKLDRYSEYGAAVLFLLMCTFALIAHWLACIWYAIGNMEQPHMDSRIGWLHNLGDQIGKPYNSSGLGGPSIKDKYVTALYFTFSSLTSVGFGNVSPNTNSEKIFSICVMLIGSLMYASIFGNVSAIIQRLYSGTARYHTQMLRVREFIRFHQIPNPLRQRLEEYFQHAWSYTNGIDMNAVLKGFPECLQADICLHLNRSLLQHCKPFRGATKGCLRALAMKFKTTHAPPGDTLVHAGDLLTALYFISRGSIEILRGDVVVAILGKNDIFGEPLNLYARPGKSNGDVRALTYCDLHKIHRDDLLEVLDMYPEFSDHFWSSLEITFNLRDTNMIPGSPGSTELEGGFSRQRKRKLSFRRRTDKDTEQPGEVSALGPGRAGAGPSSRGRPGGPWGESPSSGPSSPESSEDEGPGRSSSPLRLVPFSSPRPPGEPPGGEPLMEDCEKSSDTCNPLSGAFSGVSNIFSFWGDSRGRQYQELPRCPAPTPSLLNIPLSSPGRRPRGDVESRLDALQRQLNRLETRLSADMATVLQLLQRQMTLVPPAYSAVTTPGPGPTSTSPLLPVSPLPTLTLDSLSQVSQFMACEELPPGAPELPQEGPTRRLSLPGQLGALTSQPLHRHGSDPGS
Assay: primary screen, population patch clamp on CHO cells stably expressing hERG; higher = less effect of the substance
About 14,000 (4.5%) of roughly 310,000 compounds showed an effect of 50% or more. Effects have a minus sign here. For the sample, strong results were picked, then their nearest neighbours and some compounds at random.
Property: hERG current change (%, negative = inhibition) at 10uM; scope: individual compounds
Enter your answer as a number in %; do not include the unit.

Consider the reported hERG current change (%, negative = inhibition) at 10uM for these compounds:
- compound: "CCC(C)NC(=O)Nc1ccccc1F (centres unmarked)"
  observed.measurement: -24.5
- compound: "O=C(NCCC(NS(=O)(=O)OCC(Cl)(Cl)Cl)c1ccccc1)C(F)(F)F (centres unmarked)"
  observed.measurement: -16.4
- compound: "CN1CCc2c(sc(NC(=O)c3ccc(S(=O)(=O)N4CCCCCC4)cc3)c2C(N)=O)C1"
  observed.measurement: 5.51

Look up hERG current change (%, negative = inhibition) at 10uM for this compound: `COc1ccc2c(Cl)c(C(=O)NN)sc2c1`
7.88

Same read-out for Cc1nn(Cc2ccccc2)c(Cl)c1/C=C/C(=O)OC(C)C(=O)N1CCCC1 (centres unmarked) ?
18.7

###

Molecular target: human ether-à-go-go-related gene (hERG) potassium channel (human, UniProt Q12809);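 also: peak tail current of the secondary pulse compared with the same well before compound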
Assay: primary screen, population patch clamp on CHO cells stably expressing hERG; higher = less effect of the substance
Among all 310,000 compounds or so, about 14,000 (4.5%) showed an effect of 50% or more. The effect is printed as a negative number. The full list was thinned out, with strong results kept by preference.
Property: hERG current change (%, negative = inhibition) at 10uM; scope: individual compounds
Enter your answer as a number in %; do not include the unit.

Consider the reported hERG current change (%, negative = inhibition) at 10uM for these compounds:
- smiles.repr: "COc1ccc(NC(=O)c2ccc3c(c2)OCCO3)cc1OC"
  unit.string: "%"
  observed.measurement: 9.47
- smiles.repr: "CCNc1ccc(S(=O)(=O)N(C)C)cc1NCC(=O)Nc1ccc(F)c(Cl)c1"
  unit.string: "%"
  observed.measurement: -4.33
- smiles.repr: "Cn1nc(-c2ccc(C(=O)O)cc2)c2ccccc2c1=O"
  unit.string: "%"
  observed.measurement: 11.6
- smiles.repr: "C=CCn1c2ccccc2c2nnc(SCC(=O)Nc3cc(C)on3)nc21"
  unit.string: "%"
  observed.measurement: -8.39

Shift focus to the following entry.
Look up hERG current change (%, negative = inhibition) at 10uM for this compound: `CSc1ccc(/C=N/n2c(C)cc(C)cc2=O)cc1`
-2.09
